Tested on: Neutrophil
Assay: Inhibition of fMLP/CB-activated human neutrophil degranulation assessed as inhibition of elastase release at 30 uM using MeO-Suc-Ala-Ala-Pro-Val-p-nitroanilide as a substrate after 5 mins relative to control
Assay type: functional
VALUE TYPE: inhibition at 30 µM (%)

[[record]]
compound = "CC(C)=CCC[C@](C)(O)[C@H]1CC[C@]2(C)[C@@H]1[C@H](O)C[C@@H]1[C@@]3(C)CC[C@H](O)C(C)(C)[C@@H]3[C@@H](O[C@@H]3O[C@H](CO)[C@@H](O)[C@H](O)[C@H]3O[C@@H]3O[C@H](CO)[C@@H](O)[C@H](O)[C@H]3O)C[C@]12C [GINSENOSIDE RF]"
target_or_system = "Neutrophil"
measured_value = 29.5

[[record]]
compound = "CC1(C)CC[C@]2(C(=O)O[C@@H]3O[C@H](CO)[C@@H](O)[C@H](O)[C@H]3O)CC[C@]3(C)C(=CC[C@@H]4[C@@]5(C)CC[C@H](O[C@@H]6O[C@H](C(=O)O)[C@@H](O[C@@H]7O[C@@H](CO)[C@H](O)[C@H]7O)[C@H](O)[C@H]6O)C(C)(C)[C@@H]5CC[C@]43C)[C@@H]2C1"
target_or_system = "Neutrophil"
measured_value = 27.6


----------
Tested on: Neutrophil
Assay: Inhibition of fMLP/CB-stimulated superoxide anion generation in human neutrophils
Type: functional, cell-based
IC50 values for the molecules below.
VALUE TYPE: IC50 (µM)

[[record]]
molecule = "CCCCOC(=O)[C@H]1O[C@@H](O[C@H]2CC[C@]3(C)[C@H]4CC=C5[C@@H]6CC(C)(C)CC[C@]6(C(=O)O[C@@H]6O[C@H](CO)[C@@H](O)[C@H](O)[C@H]6O)CC[C@@]5(C)[C@]4(C)CC[C@H]3C2(C)C)[C@H](O)[C@@H](O)[C@@H]1O[C@@H]1O[C@@H](CO)[C@H](O)[C@H]1O [TAIBAIENOSIDE I]"
target_or_system = "Neutrophil"
result_units = "µM"
measured_value = 2.24

[[record]]
molecule = "CC1(C)CC[C@]2(C(=O)O[C@@H]3O[C@H](CO)[C@@H](O)[C@H](O)[C@H]3O)CC[C@]3(C)C(=CC[C@@H]4[C@@]5(C)CC[C@H](O[C@@H]6O[C@H](C(=O)O)[C@@H](O)[C@H](O)[C@H]6O[C@H]6OC[C@@H](O)[C@H](O)[C@H]6O)C(C)(C)[C@@H]5CC[C@]43C)[C@@H]2C1 [PSEUDOGINSENOSIDE RT1]"
target_or_system = "Neutrophil"
result_units = "µM"
measured_value = 19.4

[[record]]
molecule = "COC(=O)[C@H]1O[C@@H](O[C@H]2CC[C@]3(C)[C@H]4CC=C5[C@@H]6CC(C)(C)CC[C@]6(C(=O)O[C@@H]6O[C@H](CO)[C@@H](O)[C@H](O)[C@H]6O)CC[C@@]5(C)[C@]4(C)CC[C@H]3C2(C)C)[C@H](O)[C@@H](O)[C@@H]1O[C@@H]1O[C@@H](CO)[C@H](O)[C@H]1O"
target_or_system = "Neutrophil"
result_units = "µM"
measured_value = 19.7


----------
pIC50 values for the molecules below.
System: Neutrophil
Assay: Inhibition of fMLP/CB-stimulated superoxide anion generation in human neutrophils
Type: functional, cell-based
pIC50: −log10 of the molar value.
VALUE TYPE: pIC50

[[record]]
molecule = "CC1(C)CC[C@]2(C(=O)O[C@@H]3O[C@H](CO)[C@@H](O)[C@H](O)[C@H]3O)CC[C@]3(C)C(=CC[C@@H]4[C@@]5(C)CC[C@H](O[C@@H]6O[C@H](C(=O)O)[C@@H](O)[C@H](O)[C@H]6O)C(C)(C)[C@@H]5CC[C@]43C)[C@@H]2C1 [CHIKUSETSUSAPONIN IVA]"
measured_value = 5.54

[[record]]
molecule = "CC1(C)CC[C@]2(C(=O)O)CC[C@]3(C)C(=CC[C@@H]4[C@@]5(C)CC[C@H](O)C(C)(C)[C@@H]5CC[C@]43C)[C@@H]2C1 [OLEANOLIC_ACID]"
measured_value = 5.86

[[record]]
molecule = "CC1(C)CC[C@]2(C(=O)O[C@@H]3O[C@H](CO)[C@@H](O)[C@H](O)[C@H]3O)CC[C@]3(C)C(=CC[C@@H]4[C@@]5(C)CC[C@H](O[C@@H]6O[C@H](C(=O)O[C@@H]7O[C@H](CO)[C@@H](O)[C@H](O)[C@H]7O)[C@@H](O[C@@H]7O[C@@H](CO)[C@H](O)[C@H]7O)[C@H](O)[C@H]6O)C(C)(C)[C@@H]5CC[C@]43C)[C@@H]2C1"
measured_value = 5.81


----------
System: Neutrophil
Experiment: Inhibition of fMLP/CB-activated human neutrophil degranulation assessed as inhibition of elastase release using MeO-Suc-Ala-Ala-Pro-Val-p-nitroanilide as a substrate after 5 mins
Type: functional, cell-based
API: label(entry) gives y if the entry's IC50 is strictly smaller than 8 µM; on equality or larger values it gives n.

[[record]]
molecule = "CC1(C)CC[C@]2(C(=O)O)CC[C@]3(C)C(=CC[C@@H]4[C@@]5(C)CC[C@H](O)C(C)(C)[C@@H]5CC[C@]43C)[C@@H]2C1"
answer_label = "y"

[[record]]
molecule = "COC(=O)[C@H]1O[C@@H](O[C@H]2CC[C@]3(C)[C@H]4CC=C5[C@@H]6CC(C)(C)CC[C@]6(C(=O)O[C@@H]6O[C@H](CO)[C@@H](O)[C@H](O)[C@H]6O)CC[C@@]5(C)[C@]4(C)CC[C@H]3C2(C)C)[C@H](O[C@H]2OC[C@@H](O)[C@H](O)[C@H]2O)[C@@H](O)[C@@H]1O [PSEUDOGINSENOSIDE RT1 METHYL ESTER]"
answer_label = "y"

[[record]]
molecule = "CC1(C)CC[C@]2(C(=O)O[C@@H]3O[C@H](CO)[C@@H](O)[C@H](O)[C@H]3O)CC[C@]3(C)C(=CC[C@@H]4[C@@]5(C)CC[C@H](O[C@@H]6O[C@H](C(=O)O)[C@@H](O)[C@H](O)[C@H]6O[C@H]6OC[C@@H](O)[C@H](O)[C@H]6O)C(C)(C)[C@@H]5CC[C@]43C)[C@@H]2C1 [PSEUDOGINSENOSIDE RT1]"
answer_label = "n"

[[record]]
molecule = "CC1(C)CC[C@]2(C(=O)O[C@@H]3O[C@H](CO)[C@@H](O)[C@H](O)[C@H]3O)CC[C@]3(C)C(=CC[C@@H]4[C@@]5(C)CC[C@H](O)C(C)(C)[C@@H]5CC[C@]43C)[C@@H]2C1"
answer_label = "n"

[[record]]
molecule = "COC(=O)[C@H]1O[C@@H](O[C@H]2CC[C@]3(C)[C@H]4CC=C5[C@@H]6CC(C)(C)CC[C@]6(C(=O)O[C@@H]6O[C@H](CO)[C@@H](O)[C@H](O)[C@H]6O)CC[C@@]5(C)[C@]4(C)CC[C@H]3C2(C)C)[C@H](O)[C@@H](O)[C@@H]1O"
answer_label = "y"

[[record]]
molecule = "CCCCOC(=O)[C@H]1O[C@@H](O[C@H]2CC[C@]3(C)[C@H]4CC=C5[C@@H]6CC(C)(C)CC[C@]6(C(=O)O[C@@H]6O[C@H](CO)[C@@H](O)[C@H](O)[C@H]6O)CC[C@@]5(C)[C@]4(C)CC[C@H]3C2(C)C)[C@H](O)[C@@H](O)[C@@H]1O"
answer_label = "y"

